Experiment: Film method: loading capacity of active ingredient in polymer films, microscopic assessment after storage
Assay type: physicochemical
Details: molecularly disperse dissolved active ingredient, no crystals in film; storage 7 days 23° C./54% relative humidity
measured-endpoint: Loading capacity, active ingredients in %, Films with Eudragit ® EPO (%)
Field: numeric (%). Do not append units.

>>> print(df.to_string())
                                   smiles  quantitative_result
0  Clc1ccccc1C(c1ccccc1)(c1ccccc1)n1ccnc1                   20

Lab note: next compound to report on.
Ask: Return value of Loading capacity, active ingredients in %, Films with Eudragit ® EPO for input COc1ccc2cc([C@H](C)C(=O)O)ccc2c1 , no commentary.
Result: 30
